Test: protein stability index of a GFP-peptide fusion (GPS, HEK-293T) (PSI 1-6); higher = more stable;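 note: 24-mer peptide tiles fused after GFP, lentivirally expressed, FACS-sorted into six equal bins by GFP/DsRed ratio, decoded by Illumina sequencing, PSI is the read-weighted mean bin number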
Conditions: treatment: MLN4924 1 uM, 8 h; c terminus: a fixed tail appended
Consider the following sequences; for each one, report its protein stability index.
Just the number, please, no unit after it.

Noted for SRFSSSTEQSSASRLMRRHKRRRR [DVL3] : its protein stability index reads 5.26

Quick note, protein stability index for GAFYRRAQRLRPQDEPRQGCQPED [KCNG1] landed at 5.11

Short answer for AIQAFLDKCSAPKIWRTPNGKTIE [IQUB] : protein stability index was 2.27

Notebook: RLLGSVQQDLERSLQDASRGDPAH [PBXIP1] , protein stability index read as 4.56

The sequence listed as HALGSPEKVKACQGQYETIERLRS [TBC1D10A] shows protein stability index equal to 3.88

Note to self: protein stability index recorded for RASRLQAPVLVAAPHSTFFDPIVL [LPCAT4] was 2.71

LYLIMEFLPGGDMMTLLMKKDTLT [STK38L] yielded protein stability index of 2.94

For this sequence ( GGQDGLGAPKDQQQPPQQQPSQQQ [KLHL14] ), measured protein stability index is 5.4

APGVDLSRILNEMRDQYEQMAEKN [KRT16] yielded protein stability index of 4.42

# sequence AGGQTRLQASDRYRDLAGGTGRSA [FCHSD1] ; its protein stability index = 4.35

// sample PIKLELLEPKANLQAALQVLELHH [VPS39] , its protein stability index was 2.41

Just so you know, measured protein stability index for QKPRGLEGGVLRGSKLEKGHLRGP [ZSWIM9] came out at 3.82

The sequence listed as QLIDNILEESDIDRDGTINLSEFQ [CIB1] shows protein stability index equal to 3.89

Just so you know, measured protein stability index for MAVRLAGGLQKMVALLNKTNVKFL [CTNNB1] came out at 2.63

For reference, reported protein stability index for WNITKLSIEYDSEPFGKERDAAIK [CRY1] stands at 2.9

Notebook: EIDIFNPQTVGVGRARFTTYEVRM [SNX12] , protein stability index read as 2.57

The reported protein stability index of the sequence ANHVFFLLYLLHILLLDGAAWLTL [FADS1] was 3.39

Short answer for RFCLPHLVALAEQHAVQELTKAAT [RHOBTB1] : protein stability index was 2.08

Lab note: YSTRYGSPKRQLQFYRNLGKSGLR [KCNAB2] gave protein stability index of 2.69

Noted for CMVGLLLIALLTWGYIRYSGQYRE [ATL3] : its protein stability index reads 3.04

Noted for DKGEKLLRCKLAAFYRLADLFGWS [ADD1] : its protein stability index reads 2.28

Given item NKPTMSFKDYIQERSDPVEQGKPV [ETS2] , the value recorded as its protein stability index is 4.83

Sample SLVAILLVFLITAILVKVQLDALP [SLC29A1] ; protein stability index observed: 2.54

Consider GASLYAISNVCEEYIVKKLSRQEF [SLC35F2] . Its measured protein stability index is 2.45

The sequence identified as NVQILLPVGEPVTNVRLQPAATWN [FCHO1] registered its protein stability index at 2.44

Quick note, protein stability index for PLLKLACTNTYVTGLSMIANGGAI [OR4A15] landed at 2.21

The value of protein stability index measured for the sequence IPANVSNCNWFCEGSFNGSEKETM [KRT33B] turned out to be 4.07
